# Test settings: 323.15 K; 100 kPa; Liquid; Sing-around technique in a fixed-path interferometer
Measured speed of sound accompanies every entry in the list below.
Quantity: speed of sound (m/s)

molecule="CC(=O)O.O=C1CCCCCN1 [ε-caprolactam acetate]" assay_result=1422.6
molecule="CCCCCC(=O)O.O=C1CCCCCN1 [ε-caprolactam hexanoate]" assay_result=1370.8
molecule="CCCCCC(=O)O.O=C1CCCN1 [γ-butyrolactam hexanoate]" assay_result=1330.7
molecule="CC(=O)O.O=C1CCCN1 [γ-butyrolactam acetate]" assay_result=1412.5
molecule="O=C1CCCN1.O=CO [γ-butyrolactam formate]" assay_result=1437.5
molecule="O=C1CCCCCN1.O=CO [ε-caprolactam formate]" assay_result=1457.9
